All values here come from paper PMC5770965.

# experimental_target: KIX domain of CBP (UniProt P45481 586-665)
# Sequence (P45481 586-665): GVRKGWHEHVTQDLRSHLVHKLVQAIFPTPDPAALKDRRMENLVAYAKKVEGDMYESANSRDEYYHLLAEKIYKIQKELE
# measurement_notes: stopped-flow fluorescence (association kinetics); pseudo-first order conditions with KIX in excess over FITC-pKID; biphasic; kass,fast = gradient of the observed fast rate against KIX concentration
# measurement_setup: both partners purified
Non-standard residues stand in square brackets, D forms with d. No end group written: not given here. *: point of attachment. FITC = O=C1OC2(c3ccc(O)cc3Oc3cc(O)ccc32)c2ccc(NC(=S)*)cc21; pS = N[C@@H](COP(=O)(O)O)C(=O)O
quantity_name: kon (M⁻¹ s⁻¹)

Sample records with kon:
{FITC}-DSVTDSQKRREILSRRP[pS]YRGILNDLSSDAP (peptide, UniProt P15337-1 116-146, looked up, also called A136G; source: synthetic peptide, bought: Biomatik) [FITC-pKID K136G]: 8.3e+06
{FITC}-DSVTDSQKRREILSRRG[pS]YRKILNDLSSDAP (peptide, UniProt P15337-1 116-146, looked up, also called A132G; source: synthetic peptide, bought: Biomatik) [FITC-pKID P132G]: 8.3e+06
{FITC}-DSVTDSQKRRAILSRRP[pS]YRKILNDLSSDAP (peptide, UniProt P15337-1 116-146, looked up, source: synthetic peptide, bought: Biomatik) [FITC-pKID E126A]: 1.05e+07
{FITC}-DSVTDSQKRREILSRRP[pS]YAKILNDLSSDAP (peptide, UniProt P15337-1 116-146, looked up, source: synthetic peptide, bought: Biomatik) [FITC-pKID R135A]: 1.05e+07

[a] {FITC}-DSVTDSQKRREILSRRP[pS]YRKILNDLSADAP (peptide, UniProt P15337-1 116-146, looked up, source: synthetic peptide, bought: Biomatik) [FITC-pKID S143A]
[b] {FITC}-DSVTDSQKRREILSRRP[pS]YRKILNDLSGDAP (peptide, UniProt P15337-1 116-146, looked up, the text prints S143G; also called A143G; source: synthetic peptide, bought: Biomatik) [FITC-pKID S143G]
[Q] Hi there, can you help? I need to know whether a or b has lower measured kon. Lab note: record the label of whichever item you select.
[A] b
